The following molecules are listed with their measured EC50 values.
# system: alpha2B adrenergic receptors (Homo sapiens, UniProt P18089)
# Construct: expressed in transfected cells; host or cells: NIH-3T3
# Sequence (P18089 1-450): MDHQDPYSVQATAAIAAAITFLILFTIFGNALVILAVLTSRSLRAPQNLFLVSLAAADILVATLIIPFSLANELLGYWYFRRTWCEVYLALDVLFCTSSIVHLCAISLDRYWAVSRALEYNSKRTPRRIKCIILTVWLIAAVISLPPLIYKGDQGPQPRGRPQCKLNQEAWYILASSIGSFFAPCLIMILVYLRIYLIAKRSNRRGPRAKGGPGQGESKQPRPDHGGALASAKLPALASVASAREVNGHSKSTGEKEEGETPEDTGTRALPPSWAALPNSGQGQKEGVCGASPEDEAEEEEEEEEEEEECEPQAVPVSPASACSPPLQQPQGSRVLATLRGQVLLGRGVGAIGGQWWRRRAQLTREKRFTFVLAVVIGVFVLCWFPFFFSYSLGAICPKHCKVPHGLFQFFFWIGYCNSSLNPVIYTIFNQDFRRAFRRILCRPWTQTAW
# experimental protocol: Receptor Selection and Amplification Technology (RSAT) assay, alpha2B
# Type: cell-based
# experimental setup: NA = not active at concentrations less than 10 micromolar, read-out: Alpha 2B EC50
Respond numerically; units are nM and should not be typed.

molecule: S=c1[nH]cc(C[C@H]2CCc3ccccc3C2)[nH]1
EC50 / nM: 395

query: Look up EC50: O=C1c2ccc(F)cc2CCC1Cc1c[nH]c(=S)[nH]1 (stereo not drawn)
result: 300

query: S=c1[nH]cc(CC2CCc3ccccc3C2)[nH]1 (stereo not drawn) , same question.
result: 17

query: Please do the same for CC1=C(c2cc(F)cc(F)c2)C(Cc2c[nH]c(=S)[nH]2)CC1 (stereo not drawn) as well.
result: 115

query: Also O=C1c2cccnc2CCC1Cc1c[nH]c(=S)[nH]1 (stereo not drawn) , if possible.
result: 720

query: Item: "Fc1cccc(C2=CCC[C@H]2Cc2c[nH]c(=S)[nH]2)c1"
result: 191

query: Now the molecule O=C1c2ccccc2CC1Cc1c[nH]c(=S)[nH]1 (stereo not drawn)
result: 850

query: What about this molecule? S=c1[nH]cc(CC2CCCc3ccccc32)[nH]1 (stereo not drawn)
result: 24

query: Repeat for the following molecule: Cc1c(Cl)ccc2c1CC(c1c[nH]c(=S)[nH]1)C2 (stereo not drawn)
result: 14

query: Okay, and N#Cc1ccc(C2=CCCC2Cc2c[nH]c(=S)[nH]2)cc1 (stereo not drawn) ?
result: 498
